- assay-info: protein stability index of a GFP-peptide fusion (GPS, HEK-293T) (PSI 1-6); higher = more stable;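 further: 24-mer peptide tiles fused after GFP, lentivirally expressed, FACS-sorted into six equal bins by GFP/DsRed ratio, decoded by Illumina sequencing, PSI is the read-weighted mean bin number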
- measurement-context: treatment: MLN4924 1 uM, 8 h; c terminus: a fixed tail appended
Param threshold (3) applies to protein stability index; output Criterion met when value >= threshold, Criterion not met when value < threshold.

> print(dat)
                       ordered.residues     assigned.class
 1     DSVAEVAAKARDTGILIFAIGVGQ [MATN2]  Criterion not met
 2   LPMWSNQTWNNSTWSNQTQNIQSW [NANOGP8]  Criterion not met
 3    ISFHFEVTNHNIRLFEDVRSWMFR [TRIM43]      Criterion met
 4    PDKEEQLPFGPFNGTAWTYHSQDE [PKD2L1]      Criterion met
 5     LHSHRHLYPEGIGARQQQVTTYLH [POMT2]  Criterion not met
 6     TLDSYEDKQKLKRTEIISRSWFPS [YJU2B]      Criterion met
 7  EVPLEVLRQRESKWLDMLNNWDKW [TBC1D10A]      Criterion met
 8    FVLSCSYDGLDCQARQFRTFHHPT [SCNN1D]  Criterion not met
 9   FGNSEKPETMTCRLSNNQRYLFLD [ZFYVE21]  Criterion not met
10     RKFYVHIKPAPARAPACSPEAAAA [FCHO1]  Criterion not met
11   KIKDEVHPEVKCVGSVALTALVTV [C8orf76]  Criterion not met
12      YSPAVMNYSIPSNVTNLEGGPGRQ [ESR2]      Criterion met
13      ASKEEKEDWLSHALSRKKSQGLAR [FBF1]      Criterion met

----------
- assay-info: protein stability index of a GFP-peptide fusion (GPS, HEK-293T) (PSI 1-6); higher = more stable
- measurement-context: treatment: DMSO; c terminus: a fixed tail appended
Consider the following sequences and their measured protein stability index readings.
measurement-kind: protein stability index

> print(dat)
                       ordered.residues         measurement.kind  readout.number
 1     DVDLTIHGRHIDCPATWGPSVEQA [FOXJ1]  protein stability index            3.95
 2     GAQGSGGGSTSAHYAVNSQFTMGG [CARM1]  protein stability index            3.92
 3    QAPGQPPGNQAEHGAVTVGGTSVG [ZBTB22]  protein stability index             4.9
 4     AEKKQELDKLRNEWASHTAALTNK [SASS6]  protein stability index            4.38
 5       QDVVQAADLLLLTDLKTLCCEFLE [GAN]  protein stability index            2.55
 6     KSTWPRYSKPGLSMRLLESKKGLS [TCF25]  protein stability index            2.92
 7      DHIIEKKRTIIPTLVEAIKEQDGR [DFFB]  protein stability index            4.63
 8    PPALQNNLLSPLLTGTESPFDLEQ [NFE2L1]  protein stability index            4.97
 9     WAVVTMTTVGYGDMKPITVGGKIV [KCNA4]  protein stability index            2.84
10   LLGLRTFVAFAAKLWSFFIYLLRR [CTDNEP1]  protein stability index            4.28
11    IQAEERLDMEKRRCRQSLEDSESL [LRRC45]  protein stability index            5.08
12     DDSPRSALAAATAAAAAAASAAAA [SPAG8]  protein stability index            4.79
13      PPFMIALACLHVACVVQQKDARQW [CCNC]  protein stability index             3.3
14   VIAKPSELTSVTAWMLCKLLDKAG [ALDH8A1]  protein stability index             2.3
15      LAVCLAPSLFHLNTLKRENSSPRV [DLC1]  protein stability index            2.24
16    ILTTSNITEKIDVAFVDRADIKQY [TRIP13]  protein stability index            2.88
17    LQKKLDNLQCLYCEKTFRDKNTLK [ZNF277]  protein stability index            2.64
18      RYIHSMSLVHMDIKPSNIFISRTS [WEE1]  protein stability index             1.9
19  LRQRESKWLDMLNNWDKWMAKKHK [TBC1D10A]  protein stability index             2.9
20     PPLRNYFLEEDNYKNIKRPPGDIM [USP39]  protein stability index            3.19
21  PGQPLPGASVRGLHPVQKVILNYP [TRAF3IP2]  protein stability index            3.55
22  GNAHLGYSLVTHIPAGARDIQIVE [ADAMTSL2]  protein stability index            3.03
23    KAHSGRIPISLETQAHIQECKHPS [MCOLN1]  protein stability index             4.5
24     KRQVTHFQFLSWPDYGVPSSAASL [PTPN9]  protein stability index            2.21
25     RHLNDDDVTGSVKSERRNLLEDDS [VAMP4]  protein stability index            5.28
26      PQELLQSQDFVGEKLGSGEPSHSV [ATE1]  protein stability index            5.11
27     AQTFLFQGQPVVNRPLSLKDQQTF [TRADD]  protein stability index            3.25
28     QEPEVPCAAVLPGKPGDRNCPEFP [RSPH3]  protein stability index            5.21
29      RCRLSLDDRVLSSLVRDTIARVHG [POP5]  protein stability index            2.29
30   IETEPTVHHLPLSTEKVVQETVLV [EPB41L3]  protein stability index               4
31   GWGTVFSLESEEEEYPGITAEDSN [BCL2L13]  protein stability index            5.05
32      QNVVVKTLWKHQFAWPFYQPVDAI [BRD3]  protein stability index            2.31
33   GVNPDQVEKIRKLPNTLLRKDKDV [ANKRD40]  protein stability index            4.63
34    HAEIIAWIRICRPGSIIGPQQHFL [CDC14A]  protein stability index            3.91
35     KKVLNLLKGAFPARLKKVLIVGAP [PTPN9]  protein stability index            2.81
36      QRPLVSVTVSDASWVSELLWSLFV [AUP1]  protein stability index            2.36
37     NRMHESMKLFDSICNNKWFTDTSI [GNAI1]  protein stability index            2.38
38    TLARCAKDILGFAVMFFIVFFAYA [PKD2L1]  protein stability index            3.07
39   PDQEAEPQEAAGAQGRAGAPVPEP [EPB41L3]  protein stability index            5.69
40     FHRSQTLSYRNGYAIVRRPTVGIG [EFHC1]  protein stability index            2.44
41     LFSDDYGGKNCKKPAEYGYVSLGR [CEBPB]  protein stability index            3.02
42     PQGDEEDIASRYPTLWTEQVKSRQ [SMOC2]  protein stability index            4.55
43      SKDWEEVVVESMEQDRIPEVHVPP [MIA2]  protein stability index            5.09
44    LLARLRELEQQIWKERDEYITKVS [TRIM15]  protein stability index            1.98
45      RRAGAACTLRQKLIFSPCSDCEEE [WEE1]  protein stability index             4.2
46    ELIGDYSKAFLLQTVDGKHQDLKY [CDC25B]  protein stability index            2.41
47     HQRDGTLGALHTSSKPTALPSASS [SASS6]  protein stability index            4.57
48     SRLPAKCPGKGAWSIPWKWLFGAT [FKBP8]  protein stability index            1.99
49     SKEKDTQNQNITLDCEGTTNKMKS [KMT2E]  protein stability index            5.29
50   IHSHHDGVLRPTVRPGTPPDFILK [CTDNEP1]  protein stability index            3.66
51     APADPTAREGLAAPPRRLRSRKVS [FCHO1]  protein stability index            5.12
52      YYRGFTLFQTHENREHLVMMEKIL [CLK3]  protein stability index            2.31
53     KIKDARKGPLVPFPNQKSEAAEPP [KMT5A]  protein stability index            4.95
